// reported apparent KD of K4 kissing-loop reporter for each item listed
- System: K4 kissing-loop RNA reporter;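 also: bound reporter read as fluorescence of individual clusters on recovered sequencing chips by microscopy, with normalized cluster intensities fitted with a binding model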
- assayProcedure: apparent KD of K4 kissing-loop reporter; higher = weaker reporter binding
- measurementSetup: Eterna round: R107; input ligand: tryptophan 2.4 mM
# number only, unit nM dropped from output

GUACGCUUCCGAGUGAUGUUCGGUAAUAGUUAGGAUAUCGUUUUUUCGAGAAGGAACUGAAUGAGGAAACUCGUUCGAAGUGUAC [FMN A 16] ... 266
ACGUUCGGAACGGCCGCCACUAUGGGCAGUGAUGUUGCCCAUAACCGGUUUUGCGUCAGAUCCCUUAGGACCGGGUUCUGGUAUA [Soonlesoso] ... 75.2
UUGUGCAGCAAUCGAGUGAUGUUCGACGAUACCAGCCUCGAUAGAGGCCCUUGGCAGCGUAUCAUCACAUGCCAAGAGCUGCACU [#SwitchBubble 5] ... 419
GGGUGGCAGGCGGCCGCCACUCUUAGCAGCCAGUGAGUGAUGUUCGUGGCGGAAGAAUGUUCGUAGAGGACCGGGUUUGUUGUUC [Same State Tryptophan B GF 21] ... 216
GCAGGACGAGGAGGAGGAUGAAUUACUGAAGGAGCGCAUAUUUUUGCAGGUAGGUCGCGGUAAACAAGUAUAGUGAUGUUAUAUA [SSArgA.M] ... 264

Req: Give its apparent KD of K4 kissing-loop reporter value. Item: ACGUAGUACGUAGGAUAUCAGAGAUCAGUUAGUGAGAUCGAGUGAUGUUCGAUCAUGUGUUCAGUUUGAGAAGGAUGUAGUAGGA [KL-SSFMN-B5]
Resp: 198

Req: Give its apparent KD of K4 kissing-loop reporter value. Item: AUUAUAAAGUCGGCCGCCACUGAGAGUAGUGAUGUUACUCUUUUCCUUUAGAUAUUAUAUUUUAUCAGGACCGGGACAUCUGAUU [JR_Nu_ExcTryptoB_Sub024]
Resp: 130

Req: Give its apparent KD of K4 kissing-loop reporter value. Item: UAAUCCUAGUGAUAAUUAUCAAGUGGUGGGCGAGGACCGGUACGGCCGCCACUCGAAUAUGCAGUGAUGUUGUAAUCCGGAUAAU [Exclusion - Tryptophan A (Freestyle 7)]
Resp: 441
